System: U2OS
Assay: Multiplex assay against U2OS
Format: toxicity, cell-based
Conditions: human, 12 h, 1 µM, compound concentration 1 uM, replicate 2
List of Population Hoechst High Intensity Objects (%) values.
Expressed in %, but write only the number.

>>> value("c1cn2cc(-c3ccc4cn[nH]c4c3)nc(Nc3ccc(N4CCOCC4)cc3)c2n1 [ENTOSPLETINIB]")
5
>>> value("O=C1NCN(c2ccccc2)C12CCN(CCCOc1ccc(F)cc1)CC2 [SPIRAMIDE]")
7
>>> value("Cc1nc(Nc2n[nH]c3c2CN(C(=O)N[C@H](CN(C)C)c2ccccc2)C3(C)C)c2sccc2n1 [PF-03758309]")
15
>>> value("NC(=O)Nc1cc(-c2cccc(F)c2)sc1C(=O)N[C@H]1CCCNC1 [AZD-7762]")
15
>>> value("COc1cccc([C@@H](C)NCCCc2ccccc2Cl)c1.Cl [TECALCET HYDROCHLORIDE]")
10

Query the reported Population Hoechst High Intensity Objects (%) for U2OS; item: COc1ncc(-c2ccc3nccc(-c4ccnnc4)c3c2)cc1NS(=O)(=O)c1ccc(F)cc1F [OMIPALISIB]
7

----------
System: HEK-293T
Test: Multiplex assay against HEK293T
Format: toxicity, cell-based
Conditions: human, 48 h, 1 µM, compound concentration 1 uM, replicate 1
quantity.name: Population Healthy Nuclei (%)
Kindly write the number and append the unit.

>>> value("Cc1nc(-c2ccc(-c3ccc(C(=O)N4CCc5cc6c(cc54)C4(CCN(C)CC4)CO6)cc3)c(C)c2)no1")
"48%"
>>> value("OC1(c2ccc(Cl)cc2)CCN(Cc2c[nH]c3ccccc23)CC1")
"53%"
>>> value("CNc1nc(NCc2ccc(NS(C)(=O)=O)cc2Cl)cc(-c2ccccn2)n1")
"64%"
>>> value("CN(C)CC#Cc1ccc(OCCCc2sc(N3CCc4cccc(C(=O)Nc5nc6ccccc6s5)c4C3)nc2C(=O)O)c(F)c1")
"35%"
>>> value("CC(C)(O)CNc1ncc(-c2ccnc(Nc3ccnc(Cl)c3)n2)c(CC2CC2)n1")
"29%"

May I ask what Population Healthy Nuclei (%) has been recorded for Cl.N#Cc1ccc2[nH]cc(CCCCN3CCN(c4ccc5oc(C(N)=O)cc5c4)CC3)c2c1 [VILAZODONE HYDROCHLORIDE] ?
75%

Can you look up the measured Population Healthy Nuclei (%) of `Cc1cc(C)cc(-c2cnc3cc(Cl)c(-c4cccc(O)c4)cc3c2OCCCN)c1` for me?
13%

Quick one: Population Healthy Nuclei (%) of `CN1CCN(c2ccc(OC(F)(F)F)c(Nc3ncc4c(n3)-c3c(c(C(N)=O)nn3CCO)CC4)c2)CC1` ?
18%

----------
Test system: Fibroblast
Test: Multiplex assay against human fibroblast
Assay type: toxicity, cell-based
Details: 48 h, 10 µM, compound concentration 10 uM, replicate 1
# note: boundary value 40% maps to false (0); Population Fragmented Nuclei (%) below it maps to true (1)

Example cases with answers are listed next.
>>> qualitative_label("COc1ncc(-c2ccc3nccc(-c4ccnnc4)c3c2)cc1NS(=O)(=O)c1ccc(F)cc1F")
"true (1)"
>>> qualitative_label("COc1cc2nccc(Oc3ccc(NC(=O)Nc4cc(C)on4)c(Cl)c3)c2cc1OC.O")
"true (1)"
>>> qualitative_label("O=C1NCN(c2ccccc2)C12CCN(CCCOc1ccc(F)cc1)CC2 [SPIRAMIDE]")
"true (1)"
>>> qualitative_label("COc1cccc([C@@H](C)NCCCc2ccccc2Cl)c1.Cl [TECALCET HYDROCHLORIDE]")
"false (0)"
>>> qualitative_label("CCOCCn1cc(C(=O)Nc2ccc(-n3nc(-c4cccnc4)cc3C(F)(F)F)cn2)ccc1=O")
"false (0)"

Threshold test, Population Fragmented Nuclei (%) < 40%: CN1CCC[C@@H]1CCO[C@](C)(c1ccccc1)c1ccc(Cl)cc1.O=C(O)/C=C/C(=O)O [CLEMASTINE FUMARATE]
true (1)

Below 40% on Population Fragmented Nuclei (%)? Entry C[C@@H](NCCCc1cccc(C(F)(F)F)c1)c1cccc2ccccc12.Cl [CINACALCET HYDROCHLORIDE]
false (0)

Please let me know if `CNc1nc(NCc2ccc(NS(C)(=O)=O)cc2Cl)cc(-c2ccccn2)n1` shows Population Fragmented Nuclei (%) below 40%.
true (1)

Hello, is Population Fragmented Nuclei (%) of the following compound strictly smaller than 40%? `Cc1csc2c(N[C@@H](C)CN3CCN(S(=O)(=O)c4ccc(Cl)c(Cl)c4)CC3)ncnc12`
true (1)

Please let me know if Cl.N#Cc1ccc2[nH]cc(CCCCN3CCN(c4ccc5oc(C(N)=O)cc5c4)CC3)c2c1 [VILAZODONE HYDROCHLORIDE] shows Population Fragmented Nuclei (%) below 40%.
true (1)

Lab note: Population Fragmented Nuclei (%) threshold 40%. Does this compound come in strictly under it? `Cc1nc(-c2ccc(-c3ccc(C(=O)N4CCc5cc6c(cc54)C4(CCN(C)CC4)CO6)cc3)c(C)c2)no1`
false (0)
